Source of measurements: patent US20070128217A1

System: rabbit serum obtained by immunizing a rabbit with the SARS-CoV strain Frankfurt 1
Type: binding
Parameters: unit not given here
RECORDED_ENDPOINT: Binding of a rabbit serum to linear peptides

> print(dat)
    monomer.sequence  value
 1   TALQELLIQQWIQFM    0.4
 2   HTHNYDYCIPYNSVT    0.1
 3   MMPTTLFAGTHITMT    0.6
 4   TSLLKTHRMCKYTQS    0.4
 5   VTEGDGISTPKLKED    0.0
 6   TGIENATFFIFNKLV    0.1
 7   HKLLQTLVLKMLHSS    0.2
 8   ASTVHATATIPLQAS    0.9
 9   RRLLACLCKHKKVST    0.6
10   QWIQFMMSRRRLLAC    1.0
11   KVSTNLCTHSFRKKQ    0.3
12   VCWHTHNYDYCIPYN    0.1
13   YFLQCINACRIIMRC    0.1
14   PYNSVTDTIVVTEGD    0.1
15   LIQQWIQFMMSRRRL    0.3
16   WHTHNYDYCIPYNSV    0.1
17   PKFTTSLSLHKLLQT    0.2
18   DYQIGGYSEDRHSGV    0.1
19   SSGVANPAMDPIYDE    0.1
20   IDNASPASTVHATAT    0.5
